Reported pIC50 for target or system LOXL2 (Homo sapiens (Human)), by entry.
pIC50: −log10 of the molar value. Counter-ions that a name gives are not always drawn.
PROPERTY MEASURED: pIC50

- COMPOUND: "NC/C=C(\\F)CS(=O)(=O)c1ccc(C(=O)NC23CC4CC(CC(C4)C2)C3)cc1 [Compound 4, hydrochloride]"
  MEASURED RESULT: "> 5.00"
- COMPOUND: "CC(C)c1ccc(S(=O)(=O)C/C(F)=C/CN)nc1 [Compound 34, dihydrochloride]"
  MEASURED RESULT: "> 6.00"
- COMPOUND: "CC(C)c1ccccc1S(=O)(=O)C/C(F)=C/CN [Compound 21, hydrochloride]"
  MEASURED RESULT: "> 6.00"
- COMPOUND: "NC/C=C(\\F)CS(=O)(=O)c1ccccc1 [Compound 1, hydrochloride]"
  MEASURED RESULT: "> 5.00"

These data points were gathered from patent US12178791B2.
